- Assay system: Recombinant Human CTLA4-Fc chimera (R&D systems) (human) (UniProt P16410)
- Assay info: ELISA, purified MBP fusion on immobilised CTLA-4
Measurement type: EC50 (nM)

Illustrative cases are given below, each with its answer.
INSERT INTO assay_data (binder, measurement_type, numeric_value) VALUES
  ('GGCMHPFLPVASHHFCAG (peptide, not shown: large carriers; small tags and cut ends) [C4-302mat-3-100-27]', 'EC50', 352),
  ('GGCMHPFLPIVSHHFCGS (peptide, not shown: large carriers; small tags and cut ends) [C4-302mat-2-100-27]', 'EC50', 189),
  ('GGCMHPFLPVVSHHFCGG (peptide, not shown: large carriers; small tags and cut ends) [C4-302mat-1-1-24]', 'EC50', 1040),
  ('GGCMHPFLPVVSHHFCRG (peptide, not shown: large carriers; small tags and cut ends) [C4-302mat-2-100-18]', 'EC50', 369),
  ('GGCMHPFLLVVSHHFCGG (peptide, not shown: large carriers; small tags and cut ends) [H12SSI-Ctla4-3-02 (MBP fusion)]', 'EC50', 3920),
  ('GGCLHPFLPIVSHHFCGR (peptide, not shown: large carriers; small tags and cut ends) [C4-302mat-3-100-44]', 'EC50', 82),
  ('GGCMHPFLPVASHHFCGR (peptide, not shown: large carriers; small tags and cut ends) [C4-302mat-3-1-22]', 'EC50', 222),
  ('GGCMHPFLPVVSRHFCGG (peptide, not shown: large carriers; small tags and cut ends) [C4-302mat-3-1-5]', 'EC50', 674),
  ('GGCMHPFLPILSHHFCAG (peptide, not shown: large carriers; small tags and cut ends) [C4-302mat-3-1-32]', 'EC50', 322),
  ('GGCMHPFLRVVSHHFCGG (peptide, not shown: large carriers; small tags and cut ends) [C4-302mat-1-1-37]', 'EC50', 1490);

(A) GGCLHPFLPVVSHHFCGD (peptide, not shown: large carriers; small tags and cut ends) [C4-302mat-2-1-2]
(B) GGCMHPFLPVVSHHFCGA (peptide, not shown: large carriers; small tags and cut ends) [C4-302mat-3-1-48]
(C) GGCMHPYLPVISHHFCGG (peptide, not shown: large carriers; small tags and cut ends) [C4-302mat-2-1-27]
(D) GGCKHPFLPVVSHHFCGG (peptide, not shown: large carriers; small tags and cut ends) [C4-302mat-3-100-9]
(E) GGCMHPFLPVASHHFCGG (peptide, not shown: large carriers; small tags and cut ends) [C4-302mat-1-1-35]
Query :: Number of binders to sort: 5. Sort criterion: EC50, ascending. // list labels; follow requested order
Result :: B, E, A, D, C
